B1: Caulobacter ParB omega fusion; a variant is named by its letters at X, in order, B8GW30 (parent)
chain: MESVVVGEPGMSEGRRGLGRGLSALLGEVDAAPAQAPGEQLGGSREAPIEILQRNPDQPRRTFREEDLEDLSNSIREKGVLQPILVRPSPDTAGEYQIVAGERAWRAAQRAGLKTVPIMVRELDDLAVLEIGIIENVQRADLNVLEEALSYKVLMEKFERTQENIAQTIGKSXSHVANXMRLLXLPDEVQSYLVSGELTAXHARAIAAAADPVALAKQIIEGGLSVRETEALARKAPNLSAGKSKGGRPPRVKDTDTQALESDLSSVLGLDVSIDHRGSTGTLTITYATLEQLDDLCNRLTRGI

- Variants of: B1
- Assay Overview: one-hybrid fitness for binding parS DNA (scaled: cognate 1, non-cognate 0); higher = stronger binding
- Measurement Parameters: with parS DNA site
The full ranking holds about 81,000 sequences; the median of “one-hybrid fitness for binding parS DNA” is about -0.17, and the highest 2% start at about 0.51. This excerpt belongs to a sample that is enriched for the highest values.
Readout: one-hybrid fitness for binding parS DNA

| Mutant | Experimental Value |
| --- | --- |
| RIVD | ≤ 0.2 |
| FINR | ≤ 0.2 |
| PVSM | ≤ 0.2 |
| LGTH | ≤ 0.2 |
| RIKP | ≤ 0.2 |
| RLPC | 0.681 |
| WLCT | ≤ 0.2 |
| PQPN | ≤ 0.2 |
| SVMF | ≤ 0.2 |
| RSTS | 0.986 |
| QMYS | ≤ 0.2 |
| WVHI | ≤ 0.2 |
| PASK | ≤ 0.2 |
| HRTK | ≤ 0.2 |
| HKTR | ≤ 0.2 |
| RSTD | ≤ 0.2 |
| DLKG | ≤ 0.2 |
| CPVL | ≤ 0.2 |
| QGDC | ≤ 0.2 |
| RYFS | 1.02 |
| KVAV | ≤ 0.2 |
| RYAP | ≤ 0.2 |
| CQYS | ≤ 0.2 |
| RITH | 0.214 |
| LLEW | ≤ 0.2 |
| QVVM | ≤ 0.2 |
| NRAG | ≤ 0.2 |
| KFYT | ≤ 0.2 |
| RTTH | 0.232 |
| RLHC | 0.973 |
| CTWT | ≤ 0.2 |
| CKKK | ≤ 0.2 |
| TPPK | ≤ 0.2 |
| PTAI | ≤ 0.2 |
| RYFP | ≤ 0.2 |
| RLFA | 0.606 |
| NGLG | ≤ 0.2 |
| VTDM | ≤ 0.2 |
| RSFN | 0.383 |
| KLFA | ≤ 0.2 |
| RIKD | ≤ 0.2 |
| GPGK | ≤ 0.2 |
| RWPM | ≤ 0.2 |
| PDPT | ≤ 0.2 |
| RLSH | 0.266 |
| RLSP | ≤ 0.2 |
| LGGC | ≤ 0.2 |
| IIPI | ≤ 0.2 |
| LTAS | ≤ 0.2 |
| RTTP | ≤ 0.2 |
| KVCE | ≤ 0.2 |
| ETTN | ≤ 0.2 |
| RSFT | 0.751 |
| RLIQ | ≤ 0.2 |
| MTRS | ≤ 0.2 |
| PSRP | ≤ 0.2 |
| CVPM | ≤ 0.2 |
| RLCC | 0.995 |
| ARHM | ≤ 0.2 |
| RSFH | ≤ 0.2 |
| RLHN | 0.442 |
| NALR | ≤ 0.2 |
| RLCR | ≤ 0.2 |
| RLCY | 0.485 |
| RYFN | 0.425 |
| LCAF | ≤ 0.2 |
| RKTH | ≤ 0.2 |
| AQKQ | ≤ 0.2 |
| GGRS | ≤ 0.2 |
| RLIC | 0.938 |
| RHPH | ≤ 0.2 |
| NRGR | ≤ 0.2 |
| FIST | ≤ 0.2 |
| VLGC | ≤ 0.2 |
| QIVC | ≤ 0.2 |
| RIKS | 0.822 |
| WCAL | ≤ 0.2 |
| ETNG | ≤ 0.2 |
| CPIR | ≤ 0.2 |
| LLRY | ≤ 0.2 |
| WTNT | ≤ 0.2 |
| PWVT | ≤ 0.2 |
